Target: T1, LRRC7, Q96NW7
T1 sequence (Q96NW7 1440-1537, limits assumed, looked up): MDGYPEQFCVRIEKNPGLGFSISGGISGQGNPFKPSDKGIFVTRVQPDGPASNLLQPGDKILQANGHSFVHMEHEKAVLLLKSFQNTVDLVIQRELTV
Experiment: holdup assay
Set-up: key: below the threshold = too weak to quantify, mostly under pKd 3.1 to 4
Settings: plain residues with an end cap or a label only (N-terminal biotin on a linker: ado-ado)
measurement label: pKd

[[record]]
binder = "NNMAFETTHF [SLC5A12, Q1EHB4]"
obs_value = "below the threshold"

[[record]]
binder = "QRYPGNQTTC [CCL24, O00175]"
obs_value = "below the threshold"

[[record]]
binder = "SGDGKTSVWI [GJC1, P36383]"
obs_value = 3.49

[[record]]
binder = "KLQNPNQSVV [TYRP1, P17643]"
obs_value = "below the threshold"

[[record]]
binder = "EFKQTSSFLV [JAM1, Q9Y624]"
obs_value = "below the threshold"

[[record]]
binder = "PGKKPEDSRV [SLCO2B1, O94956]"
obs_value = "below the threshold"


Read the entry TNSKQGETTV [FZD1, Q9UP38] and write its reported pKd.
below the threshold

Read the entry RDYTQSSSSL [GRM5, P41594] and write its reported pKd.
below the threshold

Read the entry KKTPVSRSHL [SLC22A3, O75751] and write its reported pKd.
below the threshold

Read the entry QLGSPTADLA [SIPA1, Q96FS4] and write its reported pKd.
below the threshold

Read the entry IGHEDLETAV [DGKI, O75912] and write its reported pKd.
3.93

Read the entry QQGLLPHSSC [TYRO3, Q06418] and write its reported pKd.
below the threshold

Read the entry AHGSTRDQSI [KCNB1, Q14721] and write its reported pKd.
below the threshold

Read the entry VISSDDLTEL [CAPN6, Q9Y6Q1] and write its reported pKd.
below the threshold

Read the entry GSQSQVETEA [FKBP4, Q02790] and write its reported pKd.
below the threshold

Read the entry EAVTVESTSL [SLC22A11, Q9NSA0] and write its reported pKd.
below the threshold

Read the entry IQISELETNV [SLC1A7, O00341] and write its reported pKd.
below the threshold

Read the entry SKQFDKNAYV [CLDN10, P78369] and write its reported pKd.
below the threshold

Read the entry KIEDVEITLV [FCHSD2, O94868] and write its reported pKd.
below the threshold

Read the entry KSRPENGTVC [TMEM178B, H3BS89] and write its reported pKd.
below the threshold
